- experimental-system: α-synuclein (Homo sapiens)
- Construct: made in house; host or cells: E. coli BL21(DE3), plasmid pRK172/α-synuclein WT
- assay-summary: Aggregation inhibition Thioflavin T assay (primary assay)
- Type: biochemical
- condition-description: compared with control samples (FIGS. 1-13)
Where a name gives a salt, the structure may show the parent alone.
measured-quantity: Thioflavin T signal / fibril formation by Thioflavin T fluorescence

input: // query Thioflavin T signal / fibril formation by Thioflavin T fluorescence value for entry CN1CCc2cccc3c2[C@H]1Cc1ccc(O)c(O)c1-3 [apomorphine, hydrochloride hemihydrate]
output: very low

input: // query Thioflavin T signal / fibril formation by Thioflavin T fluorescence value for entry CC(C)NCC(O)c1ccc(O)c(O)c1 (stereo not shown) [isoproterenol]
output: very low
